target-under-test: ErbB4 on neonatal rat cardiomyocytes (rat) (UniProt Q62956)
Sequence (Q62956 26-1308): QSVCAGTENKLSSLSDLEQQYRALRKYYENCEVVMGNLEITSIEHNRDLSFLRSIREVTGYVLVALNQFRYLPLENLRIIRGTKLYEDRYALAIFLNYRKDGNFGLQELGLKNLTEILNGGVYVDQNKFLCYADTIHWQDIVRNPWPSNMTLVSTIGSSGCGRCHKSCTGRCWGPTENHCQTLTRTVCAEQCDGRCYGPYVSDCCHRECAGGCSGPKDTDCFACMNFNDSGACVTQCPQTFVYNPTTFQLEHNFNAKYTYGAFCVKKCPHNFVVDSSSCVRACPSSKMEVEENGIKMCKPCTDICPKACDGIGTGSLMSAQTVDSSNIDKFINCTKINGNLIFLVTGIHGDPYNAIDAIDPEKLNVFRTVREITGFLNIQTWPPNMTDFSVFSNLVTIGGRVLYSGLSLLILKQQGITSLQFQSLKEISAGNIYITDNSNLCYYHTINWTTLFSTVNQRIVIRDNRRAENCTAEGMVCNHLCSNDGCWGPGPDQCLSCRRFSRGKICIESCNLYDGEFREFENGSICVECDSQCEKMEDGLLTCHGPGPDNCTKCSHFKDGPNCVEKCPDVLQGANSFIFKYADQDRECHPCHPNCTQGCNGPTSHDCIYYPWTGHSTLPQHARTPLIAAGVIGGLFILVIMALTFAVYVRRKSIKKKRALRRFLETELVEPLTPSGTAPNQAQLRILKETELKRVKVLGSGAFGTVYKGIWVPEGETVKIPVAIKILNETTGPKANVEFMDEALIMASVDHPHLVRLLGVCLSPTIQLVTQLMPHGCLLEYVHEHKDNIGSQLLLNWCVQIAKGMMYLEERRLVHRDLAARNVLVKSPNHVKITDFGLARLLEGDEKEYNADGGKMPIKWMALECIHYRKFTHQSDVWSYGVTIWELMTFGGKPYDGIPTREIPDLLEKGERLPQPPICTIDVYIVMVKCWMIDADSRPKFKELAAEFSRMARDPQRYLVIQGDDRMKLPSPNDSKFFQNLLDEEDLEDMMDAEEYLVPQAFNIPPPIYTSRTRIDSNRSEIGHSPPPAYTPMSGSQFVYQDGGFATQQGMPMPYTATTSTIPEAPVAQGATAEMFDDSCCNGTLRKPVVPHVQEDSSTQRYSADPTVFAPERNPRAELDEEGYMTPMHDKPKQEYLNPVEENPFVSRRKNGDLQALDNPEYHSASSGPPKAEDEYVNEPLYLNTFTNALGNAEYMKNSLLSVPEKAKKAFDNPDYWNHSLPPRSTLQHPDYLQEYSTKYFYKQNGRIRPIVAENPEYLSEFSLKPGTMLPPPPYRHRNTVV
procedure-text: cell-based or functional assay
recorded-metric: Selectivity SC/CM
Quick one: just the number, no unit, thanks!

Some binders with recorded Selectivity SC/CM:
GET /values?readout=Selectivity SC/CM&item= huNRG1(S177-Q237)()200E_KDF)::GG::huFcSEFL2 (Pb) (Fc fusion) SHLVKCAEKEKTFCVNGGECFMVEDLSNPSRYLCKCPNEFTGDRCQKDFMASFYKAEELYQGGDKTHTCPPCPAPELLGGPSVFLFPPKPKDTLMISRTPEVTCVVVDVSHEDPEVKFNWYVDGVEVHNAKTKPCEEQYGSTYRCVSVLTVLHQDWLNGKEYKCKVSNKALPAPIEKTISKAKGQPREPQVYTLPPSREEMTKNQVSLTCLVKGFYPSDIAVEWESNGQPENNYKTTPPVLDSDGSFFLYSKLTVDKSRWQQGNVFSCSVMHEALHNHYTQKSLSLSPGK
60

GET /values?readout=Selectivity SC/CM&item= huNRG1(S177-Q237)(1B9)::GG::huFcSEFL2 (Pb) (Fc fusion) SHLVKCAEKHKSFCVNGGECFMVEDLSIPSRYLCKCPNEFTGDRCQDVFMASFYKAEELYQGGDKTHTCPPCPAPELLGGPSVFLFPPKPKDTLMISRTPEVTCVVVDVSHEDPEVKFNWYVDGVEVHNAKTKPCEEQYGSTYRCVSVLTVLHQDWLNGKEYKCKVSNKALPAPIEKTISKAKGQPREPQVYTLPPSREEMTKNQVSLTCLVKGFYPSDIAVEWESNGQPENNYKTTPPVLDSDGSFFLYSKLTVDKSRWQQGNVFSCSVMHEALHNHYTQKSLSLSPGK
520

GET /values?readout=Selectivity SC/CM&item= huNRG1(S177-F229)(NRGE1D) (E47K_D48L_F49D_M50I) 6xHis (ligand) SHLVKCGESHKSFCVNGGECYMVEGSSIPSRYLCKCPNEFTGDRCQKLDIASFGGGGEGGGGAGGGGHHHHHH
55.4

GET /values?readout=Selectivity SC/CM&item= huNRG1(S177-Q237)(2G3)::GG::huFcSEFL2 (Pb) (Fc fusion) SHLVKCGERQKSFCVNGGECYMVEDLSIPSRYLCKCPNEFTGDRCQKVFMASFYKAEELYQGGDKTHTCPPCPAPELLGGPSVFLFPPKPKDTLMISRTPEVTCVVVDVSHEDPEVKFNWYVDGVEVHNAKTKPCEEQYGSTYRCVSVLTVLHQDWLNGKEYKCKVSNKALPAPIEKTISKAKGQPREPQVYTLPPSREEMTKNQVSLTCLVKGFYPSDIAVEWESNGQPENNYKTTPPVLDSDGSFFLYSKLTVDKSRWQQGNVFSCSVMHEALHNHYTQKSLSLSPGK
292

Others:
GET /values?readout=Selectivity SC/CM&item= huNRG1(S177-Q237)(1C11)::GG::huFcSEFL2 (Pb) (Fc fusion) SHLVKCGEKEKTFCVNGGECYMVERPSIPSRFLCKCPNEFTGDRCQKFFMASFYKAEELYQGGDKTHTCPPCPAPELLGGPSVFLFPPKPKDTLMISRTPEVTCVVVDVSHEDPEVKFNWYVDGVEVHNAKTKPCEEQYGSTYRCVSVLTVLHQDWLNGKEYKCKVSNKALPAPIEKTISKAKGQPREPQVYTLPPSREEMTKNQVSLTCLVKGFYPSDIAVEWESNGQPENNYKTTPPVLDSDGSFFLYSKLTVDKSRWQQGNVFSCSVMHEALHNHYTQKSLSLSPGK
79
